B1: RTP4 (parent)
chain: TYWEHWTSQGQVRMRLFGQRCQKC

Variants of: B1
Assay: protein stability index of a GFP-peptide fusion (GPS, HEK-293T) (PSI 1-6); higher = more stable;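 also: lentivirally expressed fusions sorted by FACS into six bins by GFP to DsRed ratio, PSI derived from sequencing read proportions per bin multiplied by bin number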
Conditions: c terminus: a fixed tail appended
protein stability index below 2 gives N; protein stability index at or above it gives Y.

mutant_id: H5G
answer_label: N

mutant_id: Q22H
answer_label: N

mutant_id: C24E
answer_label: Y

mutant_id: W3H
answer_label: Y

mutant_id: E4M
answer_label: Y

mutant_id: Q11H
answer_label: N

mutant_id: W6M
answer_label: N

mutant_id: W6N
answer_label: Y

mutant_id: Q11R
answer_label: Y

mutant_id: Q22V
answer_label: N

mutant_id: S8R
answer_label: N

mutant_id: W3I
answer_label: N

mutant_id: W6Q
answer_label: Y

mutant_id: C24H
answer_label: Y

mutant_id: R15I
answer_label: Y

mutant_id: C21L
answer_label: Y

mutant_id: V12T
answer_label: Y

mutant_id: W3T
answer_label: Y

mutant_id: Q22R
answer_label: N

mutant_id: T1P
answer_label: Y

mutant_id: G18T
answer_label: N
